Test: gradient 5% acetonitrile 3 min, to 50% in 2 min, to 85% in 15 min, held 3 min, 100 µL/min
Details: column: Zorbax Extend-C18 2.1 x 50 mm; eluents: water / acetonitrile, 0.1% formic acid
Binning scheme for RP-LC retention time: lower bin: < 700 s; middle bin: ≥ 700 s and < 900 s; upper bin: ≥ 900 s

# Molecule, Assigned class
records = [
    ("CCn1cc(-c2nc(C(=O)NCc3cccc(F)c3)cs2)c2cccnc21", "upper bin"),
    ("CC1CC(C)CN(C(=O)C2CCCN(C(=O)c3cc4sccc4n3C)C2)C1 (stereo not given)", "upper bin"),
]

Category of `O=C(NCc1ccc(N2CCCCCC2)nc1)c1cncc(Br)c1` , please.
lower bin

Same thing, different molecule: O=C(NC1CCCCC1)C1CCc2sc(C(=O)N3CCOCC3)cc2C1 (stereo not given)
middle bin

Same thing, different molecule: O=C1CCCCC(Cc2ccccc2)(C(=O)N2CCc3ccccc3C2)N1 (stereo not given)
middle bin

Same thing, different molecule: `COc1ccc(OC)c(S(=O)(=O)NCCc2ncc(C)n2C(C)C)c1`
lower bin

Same thing, different molecule: CC1CCCN(CCCNC(=O)c2cc(S(=O)(=O)N3CCCCC3)ccc2Cl)C1 (stereo not given)
lower bin

Same thing, different molecule: CC1CCN(S(=O)(=O)N2CCCC(C(=O)Nc3ccccc3C(=O)c3ccccc3)C2)CC1 (stereo not given)
upper bin

Same thing, different molecule: `COC[C@@H]1CN(C(=O)c2cc(C)oc2C)C[C@H]1c1nc(C)no1`
middle bin
